recorded.metric: melting point

Req: If you can, please state the reported melting point value of O=C(O)c1cn(CCCc2ccccc2)c2cc(C3CC3)nn2c1=O .
Resp: 95 to 100 °C

Req: Also CCOC(=O)c1cn(CCc2ccccc2)c2cc(C3CCCC3)nn2c1=O , if possible.
Resp: 162 to 164 °C

Req: Also CCOC(=O)c1c[nH]c2c(C#N)c(CCCNC)nn2c1=O , if possible.
Resp: 285 to 287 °C

Req: Also CCOC(=O)c1cn(Cc2ccccc2)c2cc(C(C)C)nn2c1=O , if possible.
Resp: 135 to 140 °C

Req: Also CCOC(=O)c1cn(CCc2ccc(Cl)cc2)c2cc(C3CC3)nn2c1=O , if possible.
Resp: 190 to 195 °C

Req: Also CCOC(=O)c1cn(CCc2cccc(C(F)(F)F)c2)c2cc(C3CC3)nn2c1=O , if possible.
Resp: 140 to 145 °C

Req: Also CCOC(=O)c1cn(CCc2cccc(Cl)c2)c2cc(C3CC3)nn2c1=O , if possible.
Resp: 160 to 165 °C

Req: Also O=C(O)c1cn(Cc2ccccc2)c2cc(C3CC3)nn2c1=O , if possible.
Resp: 210 to 215 °C

Req: Also CCOC(=O)c1cn(CCc2ccc(OC)cc2)c2cc(C3CC3)nn2c1=O , if possible.
Resp: 160 to 165 °C

Req: Also CCOC(=O)c1c[nH]c2cc(C(=O)NC3CCN(Cc4ccccc4)CC3)nn2c1=O , if possible.
Resp: 264 to 266 °C

Req: Also CCOC(=O)c1cn(CCCc2ccccc2)c2cc(C3CC3)nn2c1=O , if possible.
Resp: 150 to 155 °C
